target: 1-deoxy-D-xylulose 5-phosphate reductoisomerase, apicoplastic (Plasmodium falciparum (isolate 3D7)); test: Inhibition of Plasmodium falciparum DXR extracted from Escherichia coli using DXP as substrate by NADPH consumption based photometric assay
Sequence (Q8IKG4 whole entry): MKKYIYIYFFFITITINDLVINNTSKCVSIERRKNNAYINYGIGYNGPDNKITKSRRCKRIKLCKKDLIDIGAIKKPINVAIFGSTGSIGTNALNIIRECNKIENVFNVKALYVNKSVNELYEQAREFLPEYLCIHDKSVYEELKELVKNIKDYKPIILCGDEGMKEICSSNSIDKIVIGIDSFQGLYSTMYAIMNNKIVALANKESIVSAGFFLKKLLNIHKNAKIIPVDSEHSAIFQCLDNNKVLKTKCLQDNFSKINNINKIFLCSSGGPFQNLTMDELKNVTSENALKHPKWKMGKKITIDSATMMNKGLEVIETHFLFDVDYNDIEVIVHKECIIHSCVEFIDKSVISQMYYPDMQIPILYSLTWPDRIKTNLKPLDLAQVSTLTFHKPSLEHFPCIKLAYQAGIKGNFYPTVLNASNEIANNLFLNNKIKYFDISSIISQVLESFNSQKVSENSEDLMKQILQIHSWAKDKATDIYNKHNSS
pIC50: −log10 of the molar value.
measuredEndpoint: pIC50

molecule="CN(O)C(=O)CSC(c1cccc(OCCCCCCN2C(=O)c3ccccc3C2=O)c1)P(=O)(O)O (racemic)" val=7.01
molecule="CCCCCCOc1ccc(C(SCC(=O)N(C)O)P(=O)(O)O)cc1 (racemic)" val=7.32
molecule="CN(O)C(=O)CSC(c1ccc(OCCCCCCN2C(=O)c3ccccc3C2=O)cc1)P(=O)(O)O (racemic)" val=7.68
